The measurements presented in this section are drawn from ChEMBL document CHEMBL3988442.

Listed next: entries and their corresponding Percent Effect.
test system: Plasmodium falciparum; assay: Plasmodium falciparum sporozoite viability assay; assay type: functional, organism-based; note: in the data most compounds retested in dose-response had high values
About 290 (0.85%) of roughly 34,000 compounds showed an effect of 50% or more. For the sample, strong results were picked, then their nearest neighbours and some compounds at random.
Note: unit % is implicit; provide only the numeric part.

> print(dat)
                               compound            test.target  observation.type  test.result
1  Cl.Cn1ccnc1CNC(=O)c1cnc(C2CCNCC2)cn1  Plasmodium falciparum    Percent Effect        2.787

Query the reported Percent Effect for Plasmodium falciparum; item: COc1ncccc1NC(=O)C1CC1 5.184

Query the reported Percent Effect for Plasmodium falciparum; item: COc1cc(N[C@@H](Cc2ccccc2)C(N)=O)ncn1 10.88

* * *

tested on: Plasmodium falciparum; assay: Plasmodium falciparum sporozoite viability assay; format: functional, organism-based; note: in the data most compounds retested in dose-response had high values
Screen size: about 34,000 compounds; about 290 (0.85%) showed an effect of 50% or more. The entries come from a sample that favours strong results as a whole.
Observation type: Percent Effect (%)
Note: unit % is implicit; provide only the numeric part.

Returns the measured Percent Effect for the input molecule. Input: CN(C)c1cc(N2CCN(c3ccccn3)CC2)ncn1 -18.98

Returns the measured Percent Effect for the input molecule. Input: CCC(=O)Nc1ccc(N2CCC(OC)CC2)c(C(F)(F)F)c1 1.93

Returns the measured Percent Effect for the input molecule. Input: CN(C)C(=O)NCC1CC2(CO1)CN(c1nncs1)C2 (stereo unspecified) 9.107

Returns the measured Percent Effect for the input molecule. Input: OC(COCc1ccc2c(c1)OCO2)CN1CC(n2cccn2)C1 (stereo unspecified) 13.47

Returns the measured Percent Effect for the input molecule. Input: c1cnc(-c2nc(CN3CCC(c4ccn[nH]4)CC3)cs2)nc1 5.764

Returns the measured Percent Effect for the input molecule. Input: Cn1nc(C2CNCCO2)cc1CCOc1ccc(C(F)(F)F)cc1 (stereo unspecified) 8.847

Returns the measured Percent Effect for the input molecule. Input: CNC(=O)CN1CCCC12CCN(C(=O)c1ccccc1F)CC2.O=C(O)C(F)(F)F -2.189

Returns the measured Percent Effect for the input molecule. Input: Cc1ccc(CNC2CCCc3c2cnn3Cc2ccccc2)s1.Cl (stereo unspecified) -20.07

Returns the measured Percent Effect for the input molecule. Input: CN(C)CCNC(=O)c1sc2ccccc2c1C1CCC(CN)CC1.Cl (stereo unspecified) 13.87

Returns the measured Percent Effect for the input molecule. Input: COCc1noc(-c2ccc(N3CCCC3c3nccs3)nc2)n1 (stereo unspecified) 12.02

Returns the measured Percent Effect for the input molecule. Input: CN(C)CC1CSCCCN1C(=O)c1ccc(-c2ccccc2)cc1 (stereo unspecified) 11.37

Returns the measured Percent Effect for the input molecule. Input: Cc1ccc(OCc2occc2C(=O)N2CCOC(C(=O)O)C2)cc1 (stereo unspecified) 16.87

Returns the measured Percent Effect for the input molecule. Input: COc1ccc(OCCc2cc(C3CNCCO3)nn2C)cc1 (stereo unspecified) 0.06458

Returns the measured Percent Effect for the input molecule. Input: COCC(=O)N1CC[C@@H]2O[C@H](COCc3ccncc3)CC[C@@H]21.O=C(O)C(F)(F)F -3.886

* * *

system: Plasmodium falciparum; assay: Plasmodium falciparum sporozoite viability assay; type: functional, organism-based; note: in the data most compounds retested in dose-response had high values
In all, about 34,000 compounds went through this assay and about 290 (0.85%) showed an effect of 50% or more. The full list was thinned out, with strong results kept by preference.
Observation type: Percent Effect (%)
Note: unit % is implicit; provide only the numeric part.

> print(dat)
                                   compound  observation.type  test.result
1  COc1ncccc1CN1CCC2(CC1)CC(OCC1CC1)CO2.O=C(O)C(F)(F)F (stereo not given)    Percent Effect        8.839
2  CNC(=O)[C@@H]1CCO[C@@H]2CCN(CCc3ccccc3)C[C@H]21.O=C(O)C(F)(F)F    Percent Effect        14.59

Returns the measured Percent Effect for the input compound. Input: CCCC(C)C(=O)NCc1cn2cc(Br)ccc2n1 (stereo not given) -3.946

Returns the measured Percent Effect for the input compound. Input: COc1cc(N2C[C@@H]3COC[C@]3(COCc3ccccn3)C2)ncn1.O=C(O)C(F)(F)F.O=C(O)C(F)(F)F 7.967

Returns the measured Percent Effect for the input compound. Input: O=C(NCC1CC1)[C@H]1C[C@H]2OCC[C@H]2N(Cc2ccoc2)C1 -11.2
